These measurements were taken from patent US20240041877A1.

# assay.explanation: Study KAR5585-101 Part 1 (SAD): plasma pharmacokinetics after a single oral dose of KAR5585, fasting and fed (incl. dose proportionality and food effect)
# measurement.parameters: human, plasma, po, 400 mg, AUC0-tau, Geometric Mean, Cohort 3B (Fed), 400 mg KAR5585 single oral dose, fed
// reported AUC for each item listed
Expressed in ng·h/mL, but write only the number.

Nc1nc(O[C@H](c2ccc(Cl)cc2-c2ccccc2)C(F)(F)F)cc(N2CCC3(CC2)CN[C@H](C(=O)O)C3)n1: 6360

Now for the molecule whose AUC we want.
Query :: // Input: "CCOC(=O)[C@@H]1CC2(CCN(c3cc(O[C@H](c4ccc(Cl)cc4-c4ccccc4)C(F)(F)F)nc(N)n3)CC2)CN1" . Output its AUC only.
Result :: 854

* * *

# assay.explanation: Study KAR5585-101 Part 1 (SAD): plasma pharmacokinetics after a single oral dose of KAR5585, fasting and fed (incl. dose proportionality and food effect)
# measurement.parameters: human, plasma, po, 1200 mg, t1 (t½, apparent terminal half-life), 1200 mg KAR5585 single oral, fasted, Cohort 5; Mean
reported.endpoint: half-life
The reply should read as a number followed by its unit.

Query :: // Input: CCOC(=O)[C@@H]1CC2(CCN(c3cc(O[C@H](c4ccc(Cl)cc4-c4ccccc4)C(F)(F)F)nc(N)n3)CC2)CN1 [KAR5585] . Output its half-life only.
Result :: 3.58 h

* * *

// reported AUC(0-inf) for each item listed
# assay.explanation: Study KAR5585-101 Part 1 (SAD): plasma pharmacokinetics after a single oral dose of KAR5585, fasting and fed (incl. dose proportionality and food effect)
# measurement.parameters: human, plasma, po, 400 mg, AUC0-inf, Geometric Mean, Cohort 3A (Fasting), 400 mg KAR5585 single oral dose, fasting
Expressed in ng·h/mL, but write only the number.

Nc1nc(O[C@H](c2ccc(Cl)cc2-c2ccccc2)C(F)(F)F)cc(N2CCC3(CC2)CN[C@H](C(=O)O)C3)n1: 3280

Now for the compound whose AUC(0-inf) we want.
Query :: // Input: "CCOC(=O)[C@@H]1CC2(CCN(c3cc(O[C@H](c4ccc(Cl)cc4-c4ccccc4)C(F)(F)F)nc(N)n3)CC2)CN1" . Output its AUC(0-inf) only.
Result :: 288

* * *

# assay.explanation: Study KAR5585-101 Part 1 (SAD): plasma pharmacokinetics after a single oral dose of KAR5585, fasting and fed (incl. dose proportionality and food effect)
# measurement.parameters: human, plasma, po, 1200 mg, AUC0-∞, 1200 mg KAR5585 single oral, fasted, Cohort 5; Mean
reported.endpoint: AUC(0-inf) (ng·h/mL)
Expressed in ng·h/mL, but write only the number.

Query :: // Input: CCOC(=O)[C@@H]1CC2(CCN(c3cc(O[C@H](c4ccc(Cl)cc4-c4ccccc4)C(F)(F)F)nc(N)n3)CC2)CN1 [KAR5585] . Output its AUC(0-inf) only.
Result :: 462

* * *

# assay.explanation: Study KAR5585-101 Part 1 (SAD): plasma pharmacokinetics after a single oral dose of KAR5585, fasting and fed (incl. dose proportionality and food effect)
# measurement.parameters: human, plasma, po, 100 mg, t1/2, KAR5417 after 100 mg KAR5585 single oral, fasted, Cohort 1; Mean
reported.endpoint: half-life (h)
Expressed in h, but write only the number.

Query :: // Input: "Nc1nc(O[C@H](c2ccc(Cl)cc2-c2ccccc2)C(F)(F)F)cc(N2CCC3(CC2)CN[C@H](C(=O)O)C3)n1" . Output its half-life only.
Result :: 4.7

* * *

# assay.explanation: Study KAR5585-101 Part 1 (SAD): plasma pharmacokinetics after a single oral dose of KAR5585, fasting and fed (incl. dose proportionality and food effect)
# measurement.parameters: human, plasma, po, 400 mg, AUC0-tau, 400 mg KAR5585 single oral, fasted, Cohort 3A; Geo. Mean
reported.endpoint: AUC
The reply should read as a number followed by its unit.

Query :: // Input: "CCOC(=O)[C@@H]1CC2(CCN(c3cc(O[C@H](c4ccc(Cl)cc4-c4ccccc4)C(F)(F)F)nc(N)n3)CC2)CN1" . Output its AUC only.
Result :: 176 ng·h/mL

* * *

# assay.explanation: Study KAR5585-101 Part 1 (SAD): plasma pharmacokinetics after a single oral dose of KAR5585, fasting and fed (incl. dose proportionality and food effect)
# measurement.parameters: human, plasma, po, 700 mg, AUC0-tau, 700 mg KAR5585 single oral, fasted, Cohort 4; Mean
reported.endpoint: AUC

Query :: // Input: "CCOC(=O)[C@@H]1CC2(CCN(c3cc(O[C@H](c4ccc(Cl)cc4-c4ccccc4)C(F)(F)F)nc(N)n3)CC2)CN1" . Output its AUC only.
Result :: 386 ng·h/mL

* * *

# assay.explanation: Study KAR5585-101 Part 1 (SAD): plasma pharmacokinetics after a single oral dose of KAR5585, fasting and fed (incl. dose proportionality and food effect)
# measurement.parameters: human, plasma, po, 2000 mg, tmax, KAR5417 after 2000 mg KAR5585 single oral, fasted, Cohort 6; Median
reported.endpoint: Tmax (h)
Expressed in h, but write only the number.

Query :: // Input: "Nc1nc(O[C@H](c2ccc(Cl)cc2-c2ccccc2)C(F)(F)F)cc(N2CCC3(CC2)CN[C@H](C(=O)O)C3)n1" . Output its Tmax only.
Result :: 5

* * *

# assay.explanation: Study KAR5585-101 Part 1 (SAD): plasma pharmacokinetics after a single oral dose of KAR5585, fasting and fed (incl. dose proportionality and food effect)
# measurement.parameters: human, plasma, po, 400 mg, AUC0-∞, KAR5417 after 400 mg KAR5585 single oral, fed, Cohort 3B; Geo. Mean
reported.endpoint: AUC(0-inf) (ng·h/mL)
Expressed in ng·h/mL, but write only the number.

Query :: // Input: "Nc1nc(O[C@H](c2ccc(Cl)cc2-c2ccccc2)C(F)(F)F)cc(N2CCC3(CC2)CN[C@H](C(=O)O)C3)n1" . Output its AUC(0-inf) only.
Result :: 6630

* * *

# assay.explanation: Study KAR5585-101 Part 1 (SAD): plasma pharmacokinetics after a single oral dose of KAR5585, fasting and fed (incl. dose proportionality and food effect)
# measurement.parameters: human, plasma, po, 200 mg, Vz/F, 200 mg KAR5585 single oral, fasted, Cohort 2; Geo. Mean
reported.endpoint: Vd/F (L)
Expressed in L, but write only the number.

Query :: // Input: "CCOC(=O)[C@@H]1CC2(CCN(c3cc(O[C@H](c4ccc(Cl)cc4-c4ccccc4)C(F)(F)F)nc(N)n3)CC2)CN1" . Output its Vd/F only.
Result :: 9610

* * *

# assay.explanation: Study KAR5585-101 Part 1 (SAD): plasma pharmacokinetics after a single oral dose of KAR5585, fasting and fed (incl. dose proportionality and food effect)
# measurement.parameters: human, plasma, po, 1200 mg, Cmax, KAR5417 after 1200 mg KAR5585 single oral, fasted, Cohort 5; Geo. Mean
reported.endpoint: Cmax (ng/mL)
Expressed in ng/mL, but write only the number.

Query :: // Input: "Nc1nc(O[C@H](c2ccc(Cl)cc2-c2ccccc2)C(F)(F)F)cc(N2CCC3(CC2)CN[C@H](C(=O)O)C3)n1" . Output its Cmax only.
Result :: 764

* * *

# assay.explanation: Study KAR5585-101 Part 1 (SAD): plasma pharmacokinetics after a single oral dose of KAR5585, fasting and fed (incl. dose proportionality and food effect)
# measurement.parameters: human, plasma, po, 100 mg, AUC0-∞, 100 mg KAR5585 single oral, fasted, Cohort 1; Mean
reported.endpoint: AUC(0-inf) (ng·h/mL)
Expressed in ng·h/mL, but write only the number.

Query :: // Input: "CCOC(=O)[C@@H]1CC2(CCN(c3cc(O[C@H](c4ccc(Cl)cc4-c4ccccc4)C(F)(F)F)nc(N)n3)CC2)CN1" . Output its AUC(0-inf) only.
Result :: 49.5

* * *

# assay.explanation: Study KAR5585-101 Part 1 (SAD): plasma pharmacokinetics after a single oral dose of KAR5585, fasting and fed (incl. dose proportionality and food effect)
# measurement.parameters: human, plasma, po, 2000 mg, Vz/F, 2000 mg KAR5585 single oral, fasted, Cohort 6; Geo. Mean
reported.endpoint: Vd/F (L)
Expressed in L, but write only the number.

Query :: // Input: "CCOC(=O)[C@@H]1CC2(CCN(c3cc(O[C@H](c4ccc(Cl)cc4-c4ccccc4)C(F)(F)F)nc(N)n3)CC2)CN1" . Output its Vd/F only.
Result :: 20600

* * *

# assay.explanation: clinical
# measurement.parameters: human, in vivo, 400 mg
reported.endpoint: half-life (h)
Expressed in h, but write only the number.

Query :: // Input: "CCOC(=O)[C@@H]1CC2(CCN(c3cc(O[C@H](c4ccc(Cl)cc4-c4ccccc4)C(F)(F)F)nc(N)n3)CC2)CN1" . Output its half-life only.
Result :: 3.14

* * *

# assay.explanation: Study KAR5585-101 Part 1 (SAD): plasma pharmacokinetics after a single oral dose of KAR5585, fasting and fed (incl. dose proportionality and food effect)
# measurement.parameters: human, plasma, po, 100 mg, AUC0-tau, 100 mg KAR5585 single oral, fasted, Cohort 1; Mean
reported.endpoint: AUC
The reply should read as a number followed by its unit.

Query :: // Input: "CCOC(=O)[C@@H]1CC2(CCN(c3cc(O[C@H](c4ccc(Cl)cc4-c4ccccc4)C(F)(F)F)nc(N)n3)CC2)CN1" . Output its AUC only.
Result :: 35 ng·h/mL
